B1: Pistol ribozyme (parent)
chain: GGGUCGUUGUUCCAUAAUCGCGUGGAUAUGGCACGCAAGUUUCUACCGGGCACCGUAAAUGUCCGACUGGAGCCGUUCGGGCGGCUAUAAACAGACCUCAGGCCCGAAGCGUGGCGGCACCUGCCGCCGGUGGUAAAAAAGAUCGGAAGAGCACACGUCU

Variants of: B1
assay-explanation: aptazyme ON/OFF ratio, guanine; higher = stronger switching; co-transcriptional cleavage with and without guanine
outcome-measure: aptazyme ON/OFF ratio

> print(dat)
                       mutation.key  value.reported
 1                      U7G U8A G9U            2.15
 2               U7C U10G U11A C12G            1.15
 3      U7C U8G U10G U11C C12U C13G            1.21
 4      U8C G9U U10C U11G C12U C13A            1.13
 5               U8C U11G C12A C13G            1.16
 6            U7A U8G G9C U11C C13U            1.44
 7       U7A U8G G9C U10C U11A C13U            1.22
 8       U7C U8G G9U U10G U11G C13U            1.21
 9                U7A U8A U10C U11C            1.04
10            U7A U8C G9A U11A C13U             1.3
11          U7G U10A U11A C12G C13A            1.05
12                    U8A U10C C13U            1.19
13               U7G U11G C12U C13U             1.2
14                     U7A U8G C13A            1.42
15      U7C U8A U10A U11C C12A C13G            1.06
16          U7C U10C U11G C12U C13G            1.41
17       U7A U8G G9C U10C C12A C13A            1.08
18  U7G U8G G9C U10A U11C C12G C13A            1.06
19           U8A G9U U10C U11C C12G            1.03
20           U8A G9A U10C U11G C13G            1.18
21            U7G U8C G9A U11G C13G            1.09
22           U7A G9U U10G U11C C12G            1.21
23                U7G U8C U10C C13A            1.07
24       U7A U8G G9A U10C C12G C13G            1.38
25                      U7A U8A G9U            2.12
26  U7C U8A G9A U10G U11G C12G C13A            1.21
27           U7A U8C U11A C12U C13U            1.28
28          G9A U10C U11C C12A C13G            1.18
29          U8C U10C U11C C12G C13U             1.3
30               U7A U10A C12G C13U            1.27
31       U7C U8A G9U U10A C12G C13U            1.25
32  U7G U8C G9A U10C U11G C12U C13G            1.22
33                    G9U U10C C13U            1.72
34  U7G U8G G9U U10A U11G C12U C13A             1.1
35           U8G G9C U11G C12U C13G            1.13
36               U7A U10G U11C C13A            1.07
37       U7C U8G G9U U11C C12A C13U            1.33
38                     U8C G9A C13G            1.07
39          U8A U10A U11C C12U C13A            1.08
40            U7G U8A G9U C12U C13G            1.07
41           U7C U8C U10A U11C C13G             1.1
42          G9U U10C U11G C12A C13U            1.08
43  U7C U8G G9U U10G U11G C12G C13A            1.15
44      U7A G9U U10G U11A C12A C13U            1.18
45           U7G G9C U10A U11C C13G            1.09
46                          U8G G9C            1.09
47                U7G G9A U10A C12U            1.31
48           U8C G9C U10C U11G C13A            1.14
49           U8C G9C U10G U11G C13U            1.07
50            U7G U8G G9A U10G C12A            1.27
51           U7G G9A U10A U11C C12G            1.22
52                U7C G9U U11A C12A            1.36
53               U7G U10C U11C C13A            1.06
54       U7C U8A G9U U10C U11C C13A            1.02
55                   U11G C12A C13A            1.14
56       U7A U8A G9A U11C C12A C13G            1.14
57          U7G U10G U11C C12U C13A            1.08
58          U7A U10C U11C C12A C13G            1.16
59               U8A U10A C12G C13A            1.15
60  U7C U8C G9U U10C U11G C12G C13G            1.09
61           U8C G9U U10A C12U C13U            1.09
62       U7C U8A G9C U11A C12U C13U             1.2
63  U7G U8C G9A U10G U11A C12U C13A            1.09
64  U7A U8A G9C U10G U11G C12G C13G            1.13
65               U8A U10C U11A C13G            1.07
66           U8A G9A U10G C12G C13A            1.14
67           U8C G9A U10G U11G C13A            1.15
68                U7G U8C U10C C12G            1.37
69       U7A U8A G9C U10A C12G C13A            1.15
70      U8A G9C U10C U11C C12U C13G            1.01
71          U8C U10C U11C C12A C13U            1.36
72       U7C U8A G9U U10A U11G C13G            1.03
73                     U8G G9A C13G            1.07
74       U7C U8A G9C U11C C12G C13A            1.07
75  U7A U8C G9C U10A U11G C12G C13A            1.08
76       U7C U8A G9C U10G U11C C12A            1.29
77           U7A G9U U11G C12U C13A            1.35
78       U7G U8A G9U U10A C12G C13A            1.05
79                        U10G U11C            1.03
80       U7G U8A G9U U10C U11G C13G            1.09
81               U7G U10G U11C C13U            1.13
82       U7C U8C G9C U10G U11C C12U            1.19
83                         U8C C12G            1.38
84               U7C U10G C12A C13G            1.14
85       U7A U8C G9U U10A C12U C13A            1.29
86       U7G U8A G9C U10A U11C C13U            1.04
87                U8C G9A U10G C12A            1.16
88  U7A U8C G9U U10G U11G C12G C13U            1.29
89                U8C G9A U10G C12G            1.15
90       U7G U8A G9A U10G U11A C12G            1.11
91           U7A G9C U11C C12A C13U            1.08
